Provide the recorded inhibition at 1 μM for the entries that follow.
system-name: OAT3 (Homo sapiens, UniProt Q8TCC7)
Construct: expressed in transfected cells; host or cells: MDCK-II
Sequence (Q8TCC7 whole entry): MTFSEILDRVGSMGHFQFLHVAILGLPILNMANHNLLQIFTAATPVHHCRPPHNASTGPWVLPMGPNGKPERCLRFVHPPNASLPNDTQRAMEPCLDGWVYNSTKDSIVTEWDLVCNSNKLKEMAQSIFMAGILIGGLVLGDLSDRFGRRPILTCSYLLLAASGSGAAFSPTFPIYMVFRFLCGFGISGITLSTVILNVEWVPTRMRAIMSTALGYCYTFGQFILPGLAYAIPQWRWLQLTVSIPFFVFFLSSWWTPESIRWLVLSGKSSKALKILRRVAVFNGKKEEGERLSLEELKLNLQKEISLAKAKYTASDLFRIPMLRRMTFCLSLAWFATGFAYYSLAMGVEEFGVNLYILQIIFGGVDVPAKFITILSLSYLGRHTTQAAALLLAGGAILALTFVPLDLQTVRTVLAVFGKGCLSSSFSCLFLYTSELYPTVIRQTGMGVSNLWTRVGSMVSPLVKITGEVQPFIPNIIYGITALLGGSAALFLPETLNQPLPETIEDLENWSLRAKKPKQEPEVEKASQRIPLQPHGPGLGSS
experiment: Further OAT3 uptake inhibition assay (Table 2)
Format: cell-based
reported-conditions: human, MDCK-II cells expressing human OAT3, probe 10 μM PAH (p-aminohippurate); compound 1 μM; PAH 10 μM; mean and SD of triplicate
Numbers only here, please. The scale is %.

# lookup: inhibition at 1 μM of `O=S(=O)(c1ccc(-n2cn[nH]c2=S)cc1)c1ccc(Cl)c(C(F)(F)F)c1`
80.3

# lookup: inhibition at 1 μM of `FC(F)(F)c1cc(Oc2ccc(-n3cn[nH]c3=S)cc2)ccc1Cl`
86.3

# lookup: inhibition at 1 μM of `O=S(=O)(c1ccc(Cl)cc1)c1ccc(-n2cn[nH]c2=S)cc1`
76.3

# lookup: inhibition at 1 μM of `Cc1cc(S(=O)(=O)c2ccc(-n3cn[nH]c3=S)cc2)ccc1Cl`
86.5

# lookup: inhibition at 1 μM of `CN1CCN(c2cc(S(=O)(=O)c3ccc(Cl)c(C(F)(F)F)c3)ccc2-n2cn[nH]c2=S)CC1`
17.2

# lookup: inhibition at 1 μM of `O=S(=O)(c1ccc(-n2cn[nH]c2=S)c(N2CCOCC2)c1)c1ccc(Cl)c(C(F)(F)F)c1`
48

# lookup: inhibition at 1 μM of `O=S(=O)(Nc1ccc(Cl)c(C(F)(F)F)c1)c1ccc(-n2cn[nH]c2=S)cc1`
94.1

# lookup: inhibition at 1 μM of `O=S(=O)(c1ccc(-n2cn[nH]c2=S)c(N2CCCCC2)c1)c1ccc(Cl)c(C(F)(F)F)c1`
43

# lookup: inhibition at 1 μM of `CSc1nncn1-c1ccc(S(=O)(=O)c2ccc(Cl)c(C(F)(F)F)c2)cc1`
9.78

Cited source for all entries: patent US20210290597A1
